Biological target: HRgpA-6H (Porphyromonas gingivalis) (UniProt P28784)
Assay: ELISA, FASEBA Fab on coated HRgpA-6H
Could you please report measured OD450nm for the items listed next?
Simply state the number, no unit and no words.

Ask | // returns reported OD450nm for input KB001 mouse Fab VL S26G (Fab, V domains shown) VH: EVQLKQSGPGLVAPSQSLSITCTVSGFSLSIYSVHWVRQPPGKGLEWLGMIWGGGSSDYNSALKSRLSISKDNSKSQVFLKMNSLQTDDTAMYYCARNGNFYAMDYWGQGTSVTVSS VL: QIVLTQSPAIMSASLGERVTMTCTAGSSVSSSFLHWYQQKPGSSPQLWIYSTSNLASGVPARFSGSGSGTSYSLTISSMEAEDAATYYCHQYHHSPYIYTFGGGTKLEIK
Reply | 0.73

Ask | Now try KB001 mouse Fab VL F33H (Fab, V domains shown) VH: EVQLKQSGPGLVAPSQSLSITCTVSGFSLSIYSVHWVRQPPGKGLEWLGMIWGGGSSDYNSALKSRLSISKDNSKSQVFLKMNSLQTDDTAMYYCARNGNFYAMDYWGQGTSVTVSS VL: QIVLTQSPAIMSASLGERVTMTCTASSSVSSSHLHWYQQKPGSSPQLWIYSTSNLASGVPARFSGSGSGTSYSLTISSMEAEDAATYYCHQYHHSPYIYTFGGGTKLEIK .
Reply | 0.736

Ask | Now try KB001 mouse Fab VL S30M (Fab, V domains shown) VH: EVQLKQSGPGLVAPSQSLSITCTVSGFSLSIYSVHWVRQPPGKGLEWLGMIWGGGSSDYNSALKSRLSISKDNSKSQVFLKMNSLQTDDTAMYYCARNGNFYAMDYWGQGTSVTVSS VL: QIVLTQSPAIMSASLGERVTMTCTASSSVMSSFLHWYQQKPGSSPQLWIYSTSNLASGVPARFSGSGSGTSYSLTISSMEAEDAATYYCHQYHHSPYIYTFGGGTKLEIK .
Reply | 0.818
